- testProtocol: Toxicity liver stage against HepG2, at 10uM
- Format: cell-based
- Design: test concentration 10 uM, cell line HepG2-A16-CD81EGFP
- conditionContext: human, HepG2-A16-CD81EGFP cells; read-out: INHIBITION
For each of the compounds below, state its cytotoxicity at 10 µM.
Write the number in % without appending the unit.

Q: What cytotoxicity at 10 µM value was documented for this compound, CN(Cc1cccnc1)C1CC2(CCN(C(=O)c3cscn3)CC2)C1 ?
Result: 1.02

Q: Okay, and C=C(C)COc1cccc(C(=O)N(CC)Cc2nc(COC)no2)c1 ?
Result: -18

Q: Same thing, different compound: CCN(CC(=O)N(C)C)C(=O)C(C)(C)c1ccc2c(c1)OCCO2
Result: 1.22

Q: And then Cc1nc(N(C)C)nc(NCCc2c[nH]cn2)c1C , what is it?
Result: 3.12

Q: Then this compound: COC(=O)[C@@H]1Cc2ncn(C)c2CN1S(=O)(=O)Cc1ccccc1
Result: -0.861

Q: Now try CNC(=O)C1CCCCN1C(=O)c1cn(CCOC)c2ccccc12 (stereo unspecified) .
Result: -0.408

Q: Subsequent entry: O=C(CCc1ccc(Cl)s1)N1CCCC(n2cncn2)C1 (stereo unspecified)
Result: -7.7

Q: Can you check COc1ccccc1C1SCC(=O)Nc2c1c(=O)[nH]n2C1CCCCC1 (stereo unspecified) next?
Result: -1.2

Q: Now consider CC(=O)c1cccc(NC(=O)N(CCO)C2CCc3ccccc32)c1 (stereo unspecified) .
Result: -3.01

Q: Next record, please: Cc1cccc2cc(CO)c(N3Cc4cnc(C(C)(C)C)nc4C3)nc12
Result: 10.6

Q: Queued: CS(=O)(=O)N1C[C@@H]2OCC(=O)N(CC3CC3)[C@@H]2C1
Result: -13.8

###

Task for the reader: assign each of the following compounds its reported cytotoxicity at 10 µM.
- testProtocol: Toxicity liver stage against HepG2, at 10uM
- Type: cell-based
- Parameters: test concentration 10 uM, cell line HepG2-A16-CD81EGFP
- conditionContext: human, HepG2-A16-CD81EGFP cells; read-out: INHIBITION
Give the quantity in %, number only.

Q: Need cytotoxicity at 10 µM of O=C(NCc1cc[nH]n1)NCC(O)c1ccccc1F (configuration not stated) , thanks.
Result: -17.1

Q: Can you check O=C(c1ccc(F)c(F)c1)N1CCCCC1c1nc[nH]n1 (configuration not stated) next?
Result: -7.47

Q: Also CC(=O)Nc1nc(C(=O)N2CCCC(n3cncn3)C2)cs1 (configuration not stated) ?
Result: -2.02

Q: Also need CC(=O)Nc1c(C)noc1C=Cc1ccc(S(=O)(=O)N2CCCC2)cc1 , thanks.
Result: 0.931

Q: Another compound to look at: CC(C)CC1(C(=O)NCc2nncn2C2CC2)CCC1
Result: -1.22

Q: Request: CC(=O)NS(=O)(=O)c1ccc(F)c(C(F)(F)F)c1
Result: -4.73

Q: Note, next up: Cc1nn(C)c2c(N3CCN(C(=O)C4CCCO4)CC3)ncnc12 (configuration not stated)
Result: 6.42

Q: Next entry: COc1ccc(C(=O)Nc2c(C(=O)N(C)C)nn(C)c2C)cc1
Result: 6.03

Q: Queued: CCC[C@H]1CN(Cc2nccn2C)C[C@@H]1NC(=O)C1(COC)CCC1
Result: -3.7

Q: What do you have for CC(=O)N1CCCN(C(=O)Nc2ccccc2N2CCOC2=O)CC1 ?
Result: 0.334

Q: Okay, and Cc1nccc(C2(C)CCCNC2)n1 (configuration not stated) ?
Result: 9.22

Q: And CC(=O)NCCNC(=O)CN1CCOC(Cn2cc(C)cn2)C1 (configuration not stated) ?
Result: -4.44

###

Please go through the items and note down their cytotoxicity at 10 µM.
- testProtocol: Toxicity liver stage against HepG2, at 10uM
- Assay type: cell-based
- Set-up: test concentration 10 uM, cell line HepG2-A16-CD81EGFP
- conditionContext: human, HepG2-A16-CD81EGFP cells; read-out: INHIBITION
Report the figure in % without appending any unit label.

Q: Can you share its cytotoxicity at 10 µM? I mean this compound: Cc1occc1CNC(=O)NCCN(C)C1CCCC1
Result: -19.5

Q: Lookup Cc1c(C)n(-c2ccccn2)c2nc3c(c(N)c12)CCCC3
Result: 7.18

Q: Try the compound O=C(C1CCOC1)N1C[C@H]2CN(Cc3cccnc3)C(=O)[C@H]2C1 (stereo partly specified)
Result: -108

Q: Note, next up: Cc1n[nH]c(CN2CCN(c3ncnc4scc(C)c34)CC2)c1Cl
Result: 58.4

Q: And Cc1cnn(CC2CCCN2C(=O)c2cccc(F)c2F)c1 (stereo unspecified) ?
Result: -1.3

Q: How about this compound: COC(=O)c1cccn1C1CCN(C(=O)c2cc(C)ccc2O)CC1
Result: -3.22

Q: Also check CC(C)(C)NC(=O)CCn1ncc2c(Cl)cccc21
Result: 7.25

Q: O=C(Cc1ccccc1C(F)(F)F)N1CCC2(CC1)[C@H](O)C[C@@H]2O , same question.
Result: -4.87

Q: And the next one, CC(=O)N1CCCN(C(=O)NC(C)c2ccc(C)o2)CC1 (stereo unspecified) ?
Result: 2.72

Q: Another compound to check: c1coc(-c2noc(CN3CCCC3Cn3cncn3)n2)c1 (stereo unspecified)
Result: -0.282

Q: Also Nc1nc(N2CCCC(COc3ccc(F)cc3)C2)c2nc[nH]c2n1 (stereo unspecified) ?
Result: 2.11

###

Exercise: state measured cytotoxicity at 10 µM for each of the compounds provided.
- testProtocol: Toxicity liver stage against HepG2, at 10uM
- Format: cell-based
- Set-up: test concentration 10 uM, cell line HepG2-A16-CD81EGFP
- conditionContext: human, HepG2-A16-CD81EGFP cells; read-out: INHIBITION
Give the value, in units of %, as a plain number.

Q: What value of measured cytotoxicity at 10 µM is listed for CC(NCc1ccc(OCC(N)=O)cc1)c1ccc(Cl)cc1 (stereo unspecified) ?
Result: 11.2

Q: Try this compound next: Cn1ccc(C(=O)N2CCCC(c3cc(O)n(C)n3)C2)n1 (stereo unspecified)
Result: -13.7

Q: Now this one: Cc1ccc(C)c(OCC(O)Cn2ncc3cnn(C)c(=O)c32)c1 (stereo unspecified)
Result: 4.45

Q: Continue with CCNC(=O)N1CCC(NC(=O)NCCc2cc3ccccc3o2)C1 (stereo unspecified)
Result: -51.8

Q: Can you check O=c1[nH][nH]c2cn(-c3ccc(Br)cc3)c(=O)n12 next?
Result: -11.8

Q: And Cc1ncc(C(=O)NCCNc2ncccc2C#N)s1 ?
Result: -8.18

###

- testProtocol: Toxicity liver stage against HepG2, at 10uM
- Assay type: cell-based
- Design: test concentration 10 uM, cell line HepG2-A16-CD81EGFP
- conditionContext: human, HepG2-A16-CD81EGFP cells; read-out: INHIBITION
measurementName: cytotoxicity at 10 µM (%)
Answer with a number only, understood to be in %.

Q: Field request: cytotoxicity at 10 µM | item: CN(CC(N)=O)S(=O)(=O)c1ccc(F)cc1Cl
Result: -11.9

Q: Continue with c1cc2c(cc1CN1CCC(Cc3noc(C4CC4)n3)CC1)OCCO2
Result: 14.9

Q: Same read-out for Cc1ccc2c(c1)OCCN2C(=O)c1ccc(=O)n(C)c1 ?
Result: -5.88

Q: And then CCOCc1nccc(-c2ccc(OCC)c(C(=O)O)c2)n1 , what is it?
Result: 2.55

Q: And for COCCN(C)c1ccc(NCc2ccsc2)nc1 ?
Result: -5.2

Q: Next: COc1ccc(C(=O)N2CCC(Nc3cccnn3)CC2)cn1
Result: 4.07

###

- testProtocol: Toxicity liver stage against HepG2, at 10uM
- Type: cell-based
- Design: test concentration 10 uM, cell line HepG2-A16-CD81EGFP
- conditionContext: human, HepG2-A16-CD81EGFP cells; read-out: INHIBITION
measurementName: cytotoxicity at 10 µM (%)
Express your answer in %, writing the number without its unit.

Q: Data request, read-out cytotoxicity at 10 µM, for CCN1CCOCC12CCN(C(=O)C1CCCC1)CC2
Result: -0.272

Q: Same read-out for O=C1CC(c2ccncc2)C2(CCN(C(=O)c3ccnnc3)CC2)N1 (centres undefined) ?
Result: -80.4

Q: Field entry: Cc1cnc(-c2nc(C3CCN(Cc4ccccc4Cl)CC3)no2)cn1
Result: -5.85

Q: Now consider CN(Cc1ccncc1)C1CC2(CCN(Cc3ccccn3)CC2)C1 .
Result: -90.4

Q: Proceed to CSCC(=O)N1CCC(Oc2cccc(C)c2)CC1
Result: 1.98

Q: Request: O=C([C@H]1CCCN1)N1CC2(CCNCC2)c2cc(Cl)ccc21
Result: 0.286

Q: Query CCCc1nc(C(=O)N2CCn3nc(C(=O)OC)cc3C2)cs1 next
Result: 8.87

Q: Let us now turn to O=C(Cc1cccc(F)c1F)NS(=O)(=O)c1ccc(Cl)cn1
Result: 0.545

Q: Please give the result for CC1CCCN(S(=O)(=O)NCc2ccccc2Cn2cncn2)C1 (centres undefined) too.
Result: 1.55

Q: Now try O=C(Nc1ccccn1)C1CCN(Cc2cccc3c2OCCO3)CC1 .
Result: -0.586

Q: COc1c(C)cc(C(C(=O)O)N(C)Cc2ccn[nH]2)cc1C (centres undefined) ?
Result: 2.82

Q: Lookup O=c1c(S(=O)(=O)N2CCCC2)cccn1Cc1c(F)cccc1Cl
Result: 0.814

Q: Try this compound too: CCn1nc(CC(C)C)cc1C(=O)N1C[C@H](O)[C@@H](N2CCCCC2)C1
Result: 20.7

Q: // repeat for Cc1cc(NC(=O)C(C)N2CCN(c3ccccc3F)CC2)no1 (centres undefined) and report
Result: 2.83

Q: # iterate: NCCc1nc(N[C@@H](CO)c2ccccc2)c2ccccc2n1
Result: 9.24

Q: Request: CCOC1COC2(CCN(CC3CCOCC3)CC2)C1 (centres undefined)
Result: -97.6

Q: Cool, now COc1cc(Cl)c(C)cc1NC(=O)CNc1ccn(CC(N)=O)n1
Result: 9.8

Q: Queued: Cc1nc(C)c(C(=O)N2CCc3nc4c(C)csc4c(=O)n3CC2)s1
Result: 4.11

Q: Can you handle CC(O)CN1CCN(Cc2nnc(C3CC3)o2)CC1 (centres undefined) next?
Result: -10

Q: How about Cc1ncsc1C(=O)N(C)Cc1ccsc1 ?
Result: -9.8

Q: Next compound: Cc1cc(Nc2cnccn2)cc(C2CCCNC2)n1 (centres undefined)
Result: 4.75

Q: Further, for O=C1CC2(CCN(Cc3ncc[nH]3)CC2)CN1Cc1cc(F)cc(F)c1 ?
Result: -5.53

Q: Also, NC(=O)C1CCN(CC(=O)NCCc2c(F)cccc2F)CC1 please.
Result: -7.14

Q: Quick one: CCSc1ccc(C(=O)N2CCC3(CC2)[C@H](O)C[C@@H]3O)s1
Result: 1.34

Q: Also need CN1CC(C)(C)CN(C(=O)CCc2ccccc2)CC1=O , thanks.
Result: -0.191

Q: Now the compound CN1CCC(c2cccc(Cc3ccc(F)cc3)n2)CC1
Result: -3.45

Q: What do we get for COc1ccc(CNC(C)c2cn[nH]c2C)cc1 (centres undefined) ?
Result: 6.1

Q: Record: CCc1nc(CN(C)C2CCN(CCS(C)(=O)=O)C2)no1 (centres undefined)
Result: 4.45

Q: What do we get for Cc1ccc(NCCCNC(=O)C2CC3(CCNCC3)CN2C)nc1 (centres undefined) ?
Result: 6.07

Q: What would you report for Cn1cc(C(=O)NCc2cn3c(n2)CN(Cc2ccccn2)CC3)cn1 ?
Result: -13.7

Q: Now the same for COC(=O)C1CN(Cc2nc(-c3ccccc3)cs2)C[C@@H](C)O1 (some centres undefined)
Result: -0.227

Q: # repeat for NC(=O)CNC(c1ccccc1)c1ccccc1
Result: -10.5

Q: Same lookup for Cc1noc(C2CCCN(C(=O)c3ccc(Br)cc3F)C2)n1 (centres undefined) , please.
Result: -8.06

Q: // query: CC(C)c1nc2n(n1)CC(NCc1nc(-c3ccccn3)no1)CC2 (centres undefined)
Result: -5.08

Q: Thanks! And c1cc(CN2CCCn3cnc(COCC4CC4)c3C2)co1 ?
Result: -74.2

Q: Please answer likewise for COCc1ccc(C(=O)N2CCC(c3cc4ncc(C)nc4[nH]3)C2)cc1 (centres undefined)
Result: -25.6

Q: Thanks! And CSc1ccc(OC(C)C(=O)Nc2c(C)n[nH]c2C)cc1 (centres undefined) ?
Result: 6.8

Q: How about this compound: Cc1nc(O)c2nnn(C[C@H]3CCCN3C(=O)c3ccccc3C)c2n1
Result: -7.36

Q: Similarly, CCN(CC)C(=O)c1ccc(COc2ccccc2C#N)o1 ?
Result: 1.96

Q: Another: CC(C#N)CN(C)Cc1c(Cl)ccc2cccnc12 (centres undefined)
Result: -39

Q: # repeat for CCCn1cc(NC2CCSCC2)cn1
Result: -1.88

Q: Would you kindly repeat that for CCOCC(O)CN1CCN(C(=O)CC(C)C)CC1 (centres undefined) ?
Result: -6.98

Q: What do you get for O=C(CCc1nc2cccnc2[nH]1)NCc1cccnc1 ?
Result: 7.72

Q: Cool, now O=S(=O)(Nc1cnn(C2CCOCC2)c1)c1ccc2c(c1)CCO2
Result: 5.42

Q: Now the same for COCCCOc1ccc(C(=O)N(Cc2cnn(C)c2)C(C)C)cn1
Result: 2.1

Q: # iterate: Cn1ccc2ccc(C(=O)N3CCN(C(=O)N4CCOCC4)CC3)cc21
Result: -21.1

Q: Next up: Cc1cc(CC(=O)NCC(O)c2ccc(OC(F)F)cc2)n[nH]1 (centres undefined)
Result: -0.988

Q: What do you get for O=C(c1nn[nH]c1Nc1cccc(Cl)c1)N1CCSCC1 ?
Result: 20.3

Q: What about CN1CCOCC12CCN(c1ccc(C#N)cc1)CC2 ?
Result: -4.23
